# Tested on: Madurella mycetomatis MM55
# Assay protocol: growth relative to untreated control; higher = less inhibition, active = 20 or less
# Reported conditions: 25 µM
Just give me one of these, please: active, inactive

See these solved cases before continuing.
CC(C)Nc1ncc2nc(Nc3cc(Cl)cc(C(F)(F)F)c3)n(C3CCNCC3)c2n1 | inactive
CNC(=O)c1cc(Oc2ccc(NC(=O)Nc3ccc(Cl)c(C(F)(F)F)c3)c(F)c2)ccn1 | inactive
CCN1CCN(Cc2ccc(-c3cc4c(N[C@H](C)c5ccccc5)[nH]cnc-4n3)cc2)CC1 | inactive
c1ccc(Nc2cc(Nc3cc(-c4ccccc4)[nH]n3)nc3ccnn23)cc1 | active

Turning now to a further compound:
Each compound tested received a call. Report the one for CC(C)CC(NCCc1ccccc1O)c1ccccn1 (stereo not given) .
inactive
